Would you mind telling me the reported Population Mitotic Cells (%) of each entry?
system: Fibroblast; assay: Multiplex assay against human fibroblast; type: toxicity, cell-based; details: 48 h, 1 µM, compound concentration 1 uM, replicate 2
One number for each entry, in %.

Solved entries:
[
  {
    "COMPOUND": "O=C(NCCN1CCC(n2c(=O)[nH]c3cc(Cl)ccc32)CC1)c1ccc(F)cc1 [HALOPEMIDE]",
    "Population Mitotic Cells (%)": 64
  },
  {
    "COMPOUND": "Cc1cccc(NC(=O)CN2CCC(c3ccccn3)CC2)c1.Cl.Cl",
    "Population Mitotic Cells (%)": 39
  }
]

Hi! Can you tell me Population Mitotic Cells (%) for each of these compounds?
1. COc1cccc2c1c(NS(=O)(=O)c1ccc(Cl)s1)nn2Cc1cccc(CNC(=O)C(C)(C)O)c1
2. CC[C@@H](C)Nc1nc(C)nc2c(-c3ccc(OC)nc3C)c(C)nn12

25
75

Provide reported Population Mitotic Cells (%) for each item, in the same order as listed.
1. CC(C)c1noc(N2CCC(COc3ccc(-c4ccc(S(C)(=O)=O)cc4)nc3)CC2)n1
2. N#Cc1cc(F)cc(-c2nc(-c3ccc(F)cn3)no2)c1
3. Cc1c(CC(=O)O)c2cccnc2n1Cc1ccc(S(C)(=O)=O)cc1C(F)(F)F

1. 45
2. 50
3. 36

Fill in Population Mitotic Cells (%) for each of the 6 compounds listed.
1. CCc1cc2cc(NS(=O)(=O)c3ccc(C#N)cc3)ccc2n(CC)c1=O
2. Cc1sc2c(c1C)C(c1ccc(Cl)cc1)=N[C@@H](CC(=O)NCCCCCCCCNC(=O)COc1cccc3c1C(=O)N(C1CCC(=O)NC1=O)C3=O)c1nnc(C)n1-2 (stereo partly drawn)
3. Cc1noc(-c2ccc(-c3ccc(CC(=O)O)cc3)cc2)c1NC(=O)O[C@H](C)c1ccccc1Cl
4. Cc1onc(-c2ccccc2Cl)c1C(=O)N(C)c1ccc(Cl)cc1
5. CCCCC(=O)N(Cc1ccc(-c2ccccc2-c2nnn[nH]2)cc1)[C@H](C(=O)O)C(C)C
6. CC(C)(C)c1cc(NC(=O)Nc2ccc(-c3cn4c(n3)sc3cc(OCCN5CCOCC5)ccc34)cc2)no1

[62, 6, 40, 51, 59, 57]

----------
Record form. Attribute: Population Normal (%). Fill in for each entry.
test system: Fibroblast; assay: Multiplex assay against human fibroblast; assay type: toxicity, cell-based; conditions: 12 h, 1 µM, compound concentration 1 uM, replicate 2
One number for each entry, in %.

[
  {
    "MOLECULE": "O=C1[C@H](Cc2ccc(O)cc2)N2C(=O)CCN(C(=O)NCc3ccccc3)[C@H]2CN1Cc1cccc2ccccc12",
    "Population Normal (%)": 97
  },
  {
    "MOLECULE": "Br.CS(=O)(=O)Nc1c(O)ccc2c1CCCC2C1=NCCN1 (stereo not given)",
    "Population Normal (%)": 91
  },
  {
    "MOLECULE": "Cc1onc(-c2ccccc2Cl)c1C(=O)N(C)c1ccc(Cl)cc1",
    "Population Normal (%)": 90
  },
  {
    "MOLECULE": "CCCCC1=NC2(CCCC2)C(=O)N1Cc1ccc(-c2ccccc2-c2nnn[nH]2)cc1",
    "Population Normal (%)": 96
  }
]

Then there is this molecule:
I have this molecule here, `Cc1cnc(-c2cc(N3CCN(C(=O)CCS(C)(=O)=O)CC3)ncc2Cl)c(C)c1` , and I need its recorded Population Normal (%).
90
